Recorded IC50 values for a group of molecules are listed next.
Tested on: TYK2 pseudokinase (JH2); IFNα-stimulated HEK-Blue IFNα/β cells
Experiment: HEK-Blue IFNα/β reporter assay (STAT1-inducible SEAP) for profiling TYK2 pseudokinase (JH2) inhibition
Assay type: cell-based
Conditions: 1 ng/mL human recombinant IFNα, SEAP readout, read-out: IFNα (TYK2 inhibitory activity, IC50)
quantityName: IC50

• [2H]C([2H])([2H])NC(=O)c1cnc(NC(=O)C2CC2)cc1Nc1cccc2c1N(C)C([2H])([2H])c1cc(C)nn1-2 = < 0.03 µM
• COC(=O)c1cnc(NC(=O)C2CC2)cc1Nc1cccc2c1N(C)Cc1cn(C)nc1-2 = < 0.03 µM
• CNC(=O)c1nnc(Nc2ccc(F)cn2)cc1Nc1cccc2c1OCc1cnn(C)c1-2 = > 1 µM
• [2H]C([2H])([2H])NC(=O)c1cnc(N2CCN(C(C)C)C2=O)cc1Nc1cccc2c1N(C)C([2H])([2H])c1cn(C)nc1-2 = 0.03 to 0.3 µM
• [2H]C([2H])([2H])NC(=O)c1cnc(NC(=O)C2CC2)cc1Nc1cccc2c1N(C)Cc1c[nH]nc1-2 = < 0.03 µM
• [2H]C([2H])([2H])NC(=O)c1cnc(NC(=O)C2CC2)cc1Nc1nccc2c1N(C)C([2H])([2H])c1cc(C)nn1-2 = < 0.03 µM
• CNC(=O)c1nnc(NC(=O)C2CC2)cc1Nc1cccc2c1OCc1cn(C)nc1-2 = 0.3 to 1 µM
